Assign pKi to each entry below.
system.under.test: Carbonic anhydrase 1 (Homo sapiens)
Sequence (P00915 whole entry): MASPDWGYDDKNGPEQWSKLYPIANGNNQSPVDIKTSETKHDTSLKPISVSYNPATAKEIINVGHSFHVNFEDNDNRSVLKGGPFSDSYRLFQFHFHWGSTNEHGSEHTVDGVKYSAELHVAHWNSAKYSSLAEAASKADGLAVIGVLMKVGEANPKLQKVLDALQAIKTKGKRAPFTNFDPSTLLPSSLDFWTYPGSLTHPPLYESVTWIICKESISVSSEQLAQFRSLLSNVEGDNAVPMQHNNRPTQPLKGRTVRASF
assay.explanation: Inhibition of recombinant human CA1 expressed in Escherichia coli assessed as reduction in CO2 hydration by stopped flow assay
Answers are plain numbers, as −log10 of the molar value.

INSERT INTO measurements (smiles_code, value) VALUES
  ('Nc1nc(Cl)nc2c1ncn2[C@@H]1O[C@H](COS(N)(=O)=O)[C@@H](O)[C@H]1O', 6.78);

Proceed to the following item.
Report pKi for `Nc1ncnc2c1ncn2[C@@H]1O[C@H](COS(N)(=O)=O)[C@@H](O)[C@H]1O` please.
5.20

###

system.under.test: Carbonic anhydrase 2 (Homo sapiens, UniProt P00918)
assay.explanation: Inhibition of recombinant human CA2 expressed in Escherichia coli assessed as reduction in CO2 hydration by stopped flow assay
Assign Ki to each entry below.
One number for each entry, in nM.

INSERT INTO results (smiles_code, unit_abbreviation, value) VALUES
  ('Nc1nc(Cl)nc2c1ncn2[C@@H]1O[C@H](COS(N)(=O)=O)[C@@H](O)[C@H]1O', 'nM', 65.2);

Proceed to the following item.
Report Ki for `Nc1ncnc2c1ncn2[C@@H]1O[C@H](COS(N)(=O)=O)[C@@H](O)[C@H]1O` please.
3410

###

system.under.test: Carbonic anhydrase 9 (Homo sapiens, UniProt Q16790)
assay.explanation: Inhibition of recombinant human CA9 expressed in Escherichia coli assessed as reduction in CO2 hydration by stopped flow assay
observable: Ki

INSERT INTO assay_data (smiles_code, value) VALUES
  ('Nc1nc(Cl)nc2c1ncn2[C@@H]1O[C@H](COS(N)(=O)=O)[C@@H](O)[C@H]1O', '0.143 µM');

Proceed to the following item.
Hello, I am looking for reported Ki with Carbonic anhydrase 9 (Homo sapiens, UniProt Q16790) for `Nc1ncnc2c1ncn2[C@@H]1O[C@H](COS(N)(=O)=O)[C@@H](O)[C@H]1O` . Could you help?
3.1 µM
